Tested on: RS1-10 minigene (Firefly Luciferase), HEK-293T cells
Assay: Luciferase induction assay, RS1-10 with splice modulator compounds in HEK-293T cells
Type: cell-based
Details: Homo sapiens, RS1-10, 100 nM, 18 hours, n of 3, read-out: Mean fold-induction of luciferase (relative to vehicle control)
Value Type: fold induction at 0.1 µM

Query: Form field: reported fold induction at 0.1 µM of Cc1cn2cc(-c3nc(=O)n4cc(N5CCN[C@@H](C)C5)cc(C)c4n3)cc(F)c2n1 [Compound 117B]
Reply: 52.1

Query: For the molecule shown here, Cc1cn2cc(-c3ccc(-c4ccc(C5CN(Cc6cocn6)C5)nn4)c(O)c3)cc(F)c2n1 [Compound 101A] , give the reported fold induction at 0.1 µM.
Reply: 57.5

Query: Value lookup for fold induction at 0.1 µM; key = CCN1CC(c2ccc(-c3ccc(-c4cn5cc(C)nc5c(C)n4)cc3O)nn2)C1 [Compound 32A]
Reply: 53.5

Query: What does the record list as fold induction at 0.1 µM for Cc1cn2cc(-c3nc(=O)n4cc(N5CCN[C@@H](C)C5)cc(F)c4n3)cc(C)c2n1 [Compound 121B] ?
Reply: 24.6

Query: What value of fold induction at 0.1 µM has been reported for the following molecule? Cc1cc(-c2ccc(-c3ccc(C4CNC4)nn3)c(O)c2)cc2cn(C)nc12 [Compound 6A]
Reply: 29.4

Query: Dear colleague, I am looking for the recorded fold induction at 0.1 µM of the following molecule: Cc1cc2cc(-c3nc(=O)n4cc(N5CCNC(C)(C)C5)cc(F)c4n3)cc(C)n2n1 [Compound 135B]
Reply: 16.1

Query: What fold induction at 0.1 µM value was documented for this molecule, Cc1cn2nc(-c3ccc(-c4ccc(C5CNC5)nn4)c(O)c3)cc(C)c2n1 [Compound 3A] ?
Reply: 31.7

Query: Find the recorded fold induction at 0.1 µM belonging to Cc1cn2cc(-c3ccc(-c4ccc(C5CN(C6CCOC(C)(C)C6)C5)nn4)c(O)c3)cc(F)c2n1 (stereo not drawn) [Compound 86A] and report it.
Reply: 56.1

Query: What value of fold induction at 0.1 µM has been reported for the following molecule? Cc1cn2cc(-c3nc(=O)n4cc(N5CCN[C@@H](C)C5)cc(F)c4n3)cc(F)c2n1 [Compound 116B]
Reply: 71.8

Query: If you can, please state the reported fold induction at 0.1 µM value of Cc1cn2cc(-c3nc(=O)n4cc(N5CCNCC5)cc(C)c4n3)cc(F)c2n1 [Compound 108B] .
Reply: 1.16

Query: Given Cc1cc2cc(-c3ccc(-c4ccc(C5CN(C6CCOCC6)C5)nn4)c(O)c3)ccn2n1 [Compound 192A] , state its recorded fold induction at 0.1 µM.
Reply: 51.3

Query: # input molecule: Cc1cn2cc(-c3ccc(-c4ccc(C5CNC5)nn4)c(O)c3F)cc(F)c2n1 [Compound 10A] ; wanted: its fold induction at 0.1 µM
Reply: 65.9

Query: # input molecule: CCN1CC(c2ccc(-c3ccc(-c4ccc5nn(C)cc5c4)cc3O)nn2)C1 [Compound 24A] ; wanted: its fold induction at 0.1 µM
Reply: 74.1

Query: Which fold induction at 0.1 µM is listed for Cc1cn2cc(-c3ccc(-c4ccc(C5CN(C(C)C)C5)nn4)c(O)c3)cc(F)c2n1 [Compound 15A] ?
Reply: 79

Query: Form field: reported fold induction at 0.1 µM of Cc1cn2cc(-c3cc(O)c(-c4ccc(C5CNC5)nn4)cc3F)cc(F)c2n1 [Compound 8A]
Reply: 41.5
